- method-summary: Solubility of FK 235 in water
- Assay type: physicochemical
experimental-readout: solubility

Sure, the documented solubility for COC(=O)C1=C(C#N)NC(C)=C(C(=O)OC(C)C)C1c1cccc([N+](=O)[O-])c1 (stereo not shown) [FK 235] is < 2 µg/mL
